System: GDH derived from NBRC6231
test name: Effects of chemicals on GDH activity
Assay type: biochemical, Penicillium lilacinoechinulatum
The label depends only on Relative activity: Satisfied if it is at least 100, Not satisfied if it is smaller.

Please tell me: is the compound NC(=O)CI [Iodoacetamide] at or over 100 in terms of Relative activity? Satisfied

Please tell me: is the compound `O=C(O)CN(CCN(CC(=O)O)CC(=O)O)CC(=O)O` at or over 100 in terms of Relative activity? Satisfied

Please tell me: is the compound `c1cnc2c(c1)ccc1cccnc12` at or over 100 in terms of Relative activity? Satisfied

Please tell me: is the compound [Cl][Fe]([Cl])[Cl] [FeCl3, iron chloride (III)] at or over 100 in terms of Relative activity? Satisfied

Please tell me: is the compound `O=C(O)CI` at or over 100 in terms of Relative activity? Not satisfied

Please tell me: is the compound `[Cl-].[Cl-].[Co+2]` at or over 100 in terms of Relative activity? Not satisfied

Please tell me: is the compound `c1ccc(-c2ccccn2)nc1` at or over 100 in terms of Relative activity? Satisfied
